- Test system: paddy rice (japonica rice)
- appliedConditions: japonica, paddy rice, in vivo, 21 days
recordedMetric: activity level, Paddy rice

[[record]]
molecule = "COc1c(N)nc(-c2ccc(C(F)(F)F)c(OC)c2F)nc1C(=O)OCC(F)(F)F [Compound 62]"
subjectoftest = "paddy rice (japonica rice)"
recordedmetric = "activity level, Paddy rice"
result = 0

[[record]]
molecule = "COc1c(N)nc(-c2ccc(C(F)(F)F)c(OC)c2F)nc1C(=O)ON=C(C)C [Compound 106]"
subjectoftest = "paddy rice (japonica rice)"
recordedmetric = "activity level, Paddy rice"
result = 0

[[record]]
molecule = "COc1c(N)nc(-c2ccc(C(F)(F)F)c(OC)c2F)nc1C(=O)OC1CC1 [Compound 116]"
subjectoftest = "paddy rice (japonica rice)"
recordedmetric = "activity level, Paddy rice"
result = 0

[[record]]
molecule = "COC(=O)c1nc(-c2ccc(C(F)(F)F)c(OC)c2F)nc(N)c1OC [Compound 3]"
subjectoftest = "paddy rice (japonica rice)"
recordedmetric = "activity level, Paddy rice"
result = 0

[[record]]
molecule = "CCOC(=O)c1nc(-c2ccc(C(F)(F)F)c(OC)c2F)nc(N)c1OC [Compound 24]"
subjectoftest = "paddy rice (japonica rice)"
recordedmetric = "activity level, Paddy rice"
result = 0


###

Control effect of B applied alone in a corresponding dose (%) values by entry
- Test system: Euphorbia helioscopia
- assayExplanation: Activity assay of compositions, post-emergence spray of stems and leaves
- Assay type: in vivo
- appliedConditions: B 30 g a.i./ha, 21 days
recordedMetric: Control effect of B applied alone in a corresponding dose (%)

[[record]]
chemsmiles = "Cc1cc(C)n(Cc2c(S(C)(=O)=O)ccc(C(=O)c3c(C)nn(C)c3OC(=O)c3cn(C)nc3C)c2Cl)n1"
unitofmeasure = "%"
result = 36.9

[[record]]
chemsmiles = "CCn1ncc(C(=O)c2ccc(S(C)(=O)=O)c(COCC(F)(F)F)c2Cl)c1OC(=O)c1cn(C)nc1C"
unitofmeasure = "%"
result = 60.0

[[record]]
chemsmiles = "CCC[S@@+]([O-])c1c(C(F)(F)F)ccc(C(=O)Nc2nnc(C)o2)c1F"
unitofmeasure = "%"
result = 55.4

[[record]]
chemsmiles = "Cn1[nH]c(C2CC2)c(C(=O)c2ccc(C(F)(F)F)c(N3CCCCC3=O)c2Cl)c1=O"
unitofmeasure = "%"
result = 55.2


###

- Test system: Veronica
- assayExplanation: Post-emergence test on weeds
- Format: in vivo
- Set-up: key: 0 = no effect, 9 = completely dead (levels by growth control rate)
- appliedConditions: 30 g a.i./ha, 3 weeks after application
recordedMetric: activity level of plant damage (growth control rate), Veronica

[[record]]
compound = "COc1c(N)nc(-c2ccc(C(F)(F)F)c(OC)c2F)nc1C(=O)[O-].[Na+]"
result = 9

[[record]]
compound = "COc1c(N)nc(-c2ccc(C(F)(F)F)c(OC)c2F)nc1C(=O)OCC1CCCO1 (stereo not shown)"
result = 9

[[record]]
compound = "COc1c(N)nc(-c2ccc(C(F)(F)F)c(OC)c2F)nc1C(=O)OC(C)C"
result = 9

[[record]]
compound = "COCCOC(=O)c1nc(-c2ccc(Br)c(OC)c2F)nc(N)c1OC"
result = 9

[[record]]
compound = "COC(=O)c1nc(-c2ccc(C(F)(F)F)c(OC)c2F)nc(N)c1OC"
result = 9

[[record]]
compound = "COc1c(N)nc(-c2ccc(C(F)(F)F)c(OC)c2F)nc1C(=O)O"
result = 9

[[record]]
compound = "COc1c(N)nc(-c2ccc(C(F)(F)F)c(OC)c2F)nc1C(=O)OCCC(F)(F)F"
result = 9

[[record]]
compound = "COCCOC(=O)c1nc(-c2ccc(C(F)(F)F)c(OC)c2F)nc(N)c1OC"
result = 9

[[record]]
compound = "COc1c(N)nc(-c2ccc(Br)c(OC)c2F)nc1C(=O)SC"
result = 9

[[record]]
compound = "COc1c(N)nc(-c2ccc(C(F)(F)F)c(OC)c2F)nc1C(=O)ON=C(C)C"
result = 9

[[record]]
compound = "COc1c(N)nc(-c2ccc(C(F)(F)F)c(OC)c2F)nc1C(=O)OCc1ccccc1F"
result = 9

[[record]]
compound = "CCCOC(=O)c1nc(-c2ccc(Br)c(OC)c2F)nc(N)c1OC"
result = 9

[[record]]
compound = "COC(=O)c1nc(-c2ccc(Br)c(OC)c2F)nc(N)c1OC"
result = 9

[[record]]
compound = "CCSC(=O)c1nc(-c2ccc(C(F)(F)F)c(OC)c2)nc(N)c1OC"
result = 9

[[record]]
compound = "COc1c(N)nc(-c2ccc(Br)c(OC)c2F)nc1C(=O)OCc1ccccc1"
result = 9

[[record]]
compound = "CCOCCOC(=O)c1nc(-c2ccc(C(F)(F)F)c(OC)c2F)nc(N)c1OC"
result = 9

